# credit: ChEMBL document CHEMBL1126292

method_notes: Aqueous solubility at a pH 7
Type: physicochemical
experimental_conditions: read-out: S
endpoint: solubility (µg/mL)

molecule	solubility / µg/mL
O=C(COc1ccc(OCCNCC(O)COc2ccccc2)cc1)N1CCCCC1 (configuration not stated)	2000
COCCNC(=O)COc1ccc(OCCNCC(O)COc2ccccc2)cc1 (configuration not stated)	11000

P = CCCNC(=O)COc1ccc(OCCNCC(O)COc2ccccc2)cc1 (configuration not stated)
Q = NC(=O)COc1ccc(OCCNCC(O)COc2ccccc2)cc1 (configuration not stated)
R = O=C(COc1ccc(OCCNCC(O)COc2ccccc2)cc1)NCc1ccccc1 (configuration not stated)
S = CC(C)NC(=O)COc1ccc(OCCNCC(O)COc2ccccc2)cc1 (configuration not stated)
T = O=C(COc1ccc(OCCNCC(O)COc2ccccc2)cc1)NCCCO (configuration not stated)
## Task # ascending order, key=solubility Would you mind listing the labels in the order requested?
## Result R, Q, P, S, T

----------
test_target: Beta-3 adrenergic receptor (Rattus norvegicus)
method_notes: Stimulation of GDP binding against beta-3 adrenergic receptor in brown adipose tissue (BAT) mitochondria of rats after peroral administration (Dose necessary to produce 50% of the isoprenaline effect).
endpoint: GDP ED50 (mg/kg)

Check out these entries, answers already filled in.
compound	endpoint	experimental_result
O=C(COc1ccc(OCCNCC(O)COc2ccccc2)cc1)N1CCCO1 (stereo not given)	GDP ED50	0.49
COCC(C)NC(=O)COc1ccc(OCCNCC(O)COc2ccccc2)cc1 (stereo not given)	GDP ED50	3.88

I = O=C(COc1ccc(OCCNCC(O)COc2ccccc2)cc1)NCc1ccc(Cl)cc1Cl (stereo not given)
II = O=C(COc1ccc(OCCNCC(O)COc2ccccc2)cc1)N1CCOCC1 (stereo not given)
III = CN(Cc1ccccc1)C(=O)COc1ccc(OCCNCC(O)COc2ccccc2)cc1 (stereo not given)
## Task Arrange by GDP ED50, high to low. Would you mind listing the labels in the order requested?
## Result III, I, II
(III: 8.6 mg/kg, I: 2.77 mg/kg, II: 0.54 mg/kg)

----------
method_notes: Partition coefficient (logP)
Type: physicochemical
experimental_conditions: octanol/water
endpoint: logP

molecule	logP
O=C(COc1ccc(OCCNCC(O)COc2ccccc2)cc1)NCc1ccccc1 (configuration not stated)	3.2
CCCNC(=O)COc1ccc(OCCNCC(O)COc2ccccc2)cc1 (configuration not stated)	2.4
O=C(COc1ccc(OCCNCC(O)COc2ccccc2)cc1)NCCCO (configuration not stated)	0.5

1 = COCCNC(=O)COc1ccc(OCCNCC(O)COc2ccccc2)cc1 (configuration not stated)
2 = NC(=O)COc1ccc(OCCNCC(O)COc2ccccc2)cc1 (configuration not stated)
## Task Lab note: record which item had the higher logP, 1 or 2 . # answer = label of selected item
## Result 1

----------
Tested on: Rattus norvegicus
method_notes: Ratio of the dose (D500, peroral administration) elevating the rat heart rate to 500 bpm and GDP ED50.
Type: functional
// Selectivity index lookup, one value per entry

compound	experimental_result
COCCNC(=O)COc1ccc(OCCNCC(O)COc2ccccc2)cc1 (centres undefined)	>100
COCCNC(=O)COc1ccc(OCCNC[C@H](O)COc2ccccc2)cc1	>100
CNC(=O)COc1ccc(OCCNCC(O)COc2ccccc2)cc1 (centres undefined)	>50
NC(=O)COc1ccc(OCCNCC(O)COc2ccccc2)cc1 (centres undefined)	>100

Moving on to another compound below.
## Task Reported Selectivity index for CNC(=O)COc1cccc(OCCNCC(O)COc2ccccc2)c1 (centres undefined) : what is it?
## Result 74
